# MEASUREMENT TARGET: Cytochrome P450 2B6 (Homo sapiens)
# Sequence (P20813 whole entry): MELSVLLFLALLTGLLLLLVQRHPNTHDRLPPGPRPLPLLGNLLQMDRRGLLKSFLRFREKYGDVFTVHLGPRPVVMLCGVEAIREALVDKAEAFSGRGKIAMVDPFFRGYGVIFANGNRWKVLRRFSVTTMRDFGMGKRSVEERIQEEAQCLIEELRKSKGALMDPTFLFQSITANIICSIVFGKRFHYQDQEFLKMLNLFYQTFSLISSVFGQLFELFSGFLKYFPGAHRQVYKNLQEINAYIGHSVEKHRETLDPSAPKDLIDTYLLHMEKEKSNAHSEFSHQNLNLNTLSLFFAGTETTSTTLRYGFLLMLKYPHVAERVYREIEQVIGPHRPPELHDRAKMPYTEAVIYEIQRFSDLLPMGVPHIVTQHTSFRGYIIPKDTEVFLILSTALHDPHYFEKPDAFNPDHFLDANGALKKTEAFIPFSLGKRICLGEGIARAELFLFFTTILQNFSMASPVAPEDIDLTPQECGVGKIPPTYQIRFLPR
pIC50: −log10 of the molar value.
VALUE TYPE: pIC50

Please indicate recorded pIC50 of `N#Cc1ccc(COc2cccc(C3CCN(Cc4nc5ccc(C(=O)O)cc5n4C[C@@H]4CCO4)CC3)n2)c(F)c1` measured with Cytochrome P450 2B6 (Homo sapiens). < 4.52

----------
# EXPERIMENTAL DETAILS: Half life in Cynomolgus monkey at 5 mg/kg, po measured up to 48 hrs by LC-MS/MS analysis
# Assay type: ADME, organism-based, Macaca fascicularis
# COND: in vivo
VALUE TYPE: half-life
Put down the number, then write its unit next to it.

Dear colleague, please send me the reported half-life for `O=C(O)c1ccc2nc(Cc3ccc(-c4ccc(F)c(OCc5ccc(Cl)c6ccoc56)n4)cc3F)n(C[C@@H]3CCO3)c2c1` when you can. 10.4 h

----------
# MEASUREMENT TARGET: UniProt P28222
# Sequence (P28222 whole entry): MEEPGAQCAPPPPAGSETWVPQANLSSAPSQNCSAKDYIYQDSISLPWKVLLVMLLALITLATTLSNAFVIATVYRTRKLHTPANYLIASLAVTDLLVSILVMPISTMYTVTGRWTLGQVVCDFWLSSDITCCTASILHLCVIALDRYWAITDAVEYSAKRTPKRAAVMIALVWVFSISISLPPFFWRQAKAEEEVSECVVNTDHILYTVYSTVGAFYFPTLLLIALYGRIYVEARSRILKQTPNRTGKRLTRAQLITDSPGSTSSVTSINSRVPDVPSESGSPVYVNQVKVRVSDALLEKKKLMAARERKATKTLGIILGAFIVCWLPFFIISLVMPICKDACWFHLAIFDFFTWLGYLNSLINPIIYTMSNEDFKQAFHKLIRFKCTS
# EXPERIMENTAL DETAILS: Inhibition of 5-HT1B (unknown origin) at 10 uM relative to control
# Format: toxicity
VALUE TYPE: inhibition at 10 µM (%)
Report as a plain number; the unit % is understood.

Using the record for `O=C(O)c1ccc2nc(Cc3ccc(-c4ccc(F)c(OCc5ccc(Cl)c6ccoc56)n4)cc3F)n(C[C@@H]3CCO3)c2c1` , state its measured inhibition at 10 µM. 62.4

----------
# EXPERIMENTAL DETAILS: Half life in Cynomolgus monkey at 0.5 mg/kg, iv measured up to 48 hrs by LC-MS/MS analysis
# Assay type: ADME, organism-based, Macaca fascicularis
# COND: in vivo
VALUE TYPE: half-life (h)
Give the quantity in h, number only.

Given `O=C(O)c1ccc2nc(Cc3ccc(-c4ccc(F)c(OCc5ccc(Cl)c6ccoc56)n4)cc3F)n(C[C@@H]3CCO3)c2c1` , respond with its half-life. 12.7

----------
# EXPERIMENTAL DETAILS: Oral bioavailability in Sprague-Dawley rat at 10 mg/kg measured up to 24 hrs by LC-MS/MS analysis
# Format: ADME, organism-based
# COND: in vivo
VALUE TYPE: bioavailability (%)
Numeric only. Scale: %

Provide only the value of recorded bioavailability for `O=C(O)c1ccc2nc(Cc3ccc(-c4ccc(F)c(OCc5ccc(Cl)c6ccoc56)n4)cc3F)n(C[C@@H]3CCO3)c2c1` 20.1

----------
# MEASUREMENT TARGET: Voltage-gated inwardly rectifying potassium channel KCNH2 (Homo sapiens)
# Sequence (Q12809 whole entry): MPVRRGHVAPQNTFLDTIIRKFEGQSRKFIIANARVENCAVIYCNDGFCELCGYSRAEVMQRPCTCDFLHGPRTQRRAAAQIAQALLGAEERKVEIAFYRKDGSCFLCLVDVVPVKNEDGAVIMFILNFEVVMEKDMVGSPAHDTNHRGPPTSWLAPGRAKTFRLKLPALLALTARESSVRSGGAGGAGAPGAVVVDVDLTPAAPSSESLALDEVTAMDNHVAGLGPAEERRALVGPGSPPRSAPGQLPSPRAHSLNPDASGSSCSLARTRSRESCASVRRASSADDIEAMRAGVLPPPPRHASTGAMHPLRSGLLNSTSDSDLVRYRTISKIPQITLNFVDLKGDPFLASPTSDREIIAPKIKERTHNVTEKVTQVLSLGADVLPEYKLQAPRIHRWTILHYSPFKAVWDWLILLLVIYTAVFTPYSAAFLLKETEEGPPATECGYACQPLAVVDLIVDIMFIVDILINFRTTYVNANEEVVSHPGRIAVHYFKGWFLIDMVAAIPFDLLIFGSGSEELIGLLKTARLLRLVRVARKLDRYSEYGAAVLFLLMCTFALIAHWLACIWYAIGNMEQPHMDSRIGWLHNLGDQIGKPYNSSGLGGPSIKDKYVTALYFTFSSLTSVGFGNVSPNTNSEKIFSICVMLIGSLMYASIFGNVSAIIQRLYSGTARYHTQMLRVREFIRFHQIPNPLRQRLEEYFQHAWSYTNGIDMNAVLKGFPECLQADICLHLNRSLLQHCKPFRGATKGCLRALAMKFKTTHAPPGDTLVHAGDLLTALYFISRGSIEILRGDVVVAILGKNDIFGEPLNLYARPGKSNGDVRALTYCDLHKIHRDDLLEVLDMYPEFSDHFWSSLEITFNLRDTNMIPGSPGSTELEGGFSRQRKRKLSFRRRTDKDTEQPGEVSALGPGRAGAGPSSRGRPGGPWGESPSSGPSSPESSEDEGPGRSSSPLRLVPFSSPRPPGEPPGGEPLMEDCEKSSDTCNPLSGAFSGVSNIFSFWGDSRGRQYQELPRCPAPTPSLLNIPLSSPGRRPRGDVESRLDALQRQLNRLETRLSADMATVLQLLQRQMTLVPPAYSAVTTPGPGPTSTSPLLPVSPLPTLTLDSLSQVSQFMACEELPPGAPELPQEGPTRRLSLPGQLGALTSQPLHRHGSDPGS
# EXPERIMENTAL DETAILS: Inhibition of human ERG by whole-cell patch clamp technique
VALUE TYPE: IC50

Worked cases, IC50 given:
{"columns": ["SUBSTANCE SMILES", "IC50"],
 "data": [
  ["O=C(O)c1ccc2nc(Cc3ccc(-c4cccc(OCc5ccc(Cl)c6cc(Cl)oc56)n4)cc3F)n(C[C@@H]3CCO3)c2c1", "> 30 µM"],
  ["O=C(O)c1ccc2nc(Cc3ccc(-c4ccc(F)c(OCc5ccc(Cl)c6ccoc56)n4)cc3F)n(C[C@@H]3CCO3)c2c1", "> 30 µM"]
]}

Look up IC50 of `O=C(O)c1ccc2nc(Cc3ccc(-c4cccc(OCc5ccc(Cl)c6ccoc56)n4)cc3F)n(C[C@@H]3CCO3)c2c1` and report it. > 30 µM

----------
# MEASUREMENT TARGET: Cytochrome P450 2D6 (Homo sapiens, UniProt P10635)
# Sequence (P10635 whole entry): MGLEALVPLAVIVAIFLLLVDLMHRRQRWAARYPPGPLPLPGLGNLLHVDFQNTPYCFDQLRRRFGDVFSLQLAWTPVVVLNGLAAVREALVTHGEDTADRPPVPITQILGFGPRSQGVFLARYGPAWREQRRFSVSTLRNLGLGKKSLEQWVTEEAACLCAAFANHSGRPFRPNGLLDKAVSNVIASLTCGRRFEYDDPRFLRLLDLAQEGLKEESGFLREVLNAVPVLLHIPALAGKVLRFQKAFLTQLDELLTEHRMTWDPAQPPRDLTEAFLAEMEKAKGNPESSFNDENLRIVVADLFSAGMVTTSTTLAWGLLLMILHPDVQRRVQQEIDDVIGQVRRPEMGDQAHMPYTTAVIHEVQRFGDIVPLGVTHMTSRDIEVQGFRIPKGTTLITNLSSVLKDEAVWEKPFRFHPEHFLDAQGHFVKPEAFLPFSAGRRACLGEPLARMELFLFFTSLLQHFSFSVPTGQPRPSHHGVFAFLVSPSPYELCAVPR
pIC50: −log10 of the molar value.
VALUE TYPE: pIC50

Name the recorded pIC50 of `N#Cc1ccc(COc2cccc(C3CCN(Cc4nc5ccc(C(=O)O)cc5n4C[C@@H]4CCO4)CC3)n2)c(F)c1` , assay system Cytochrome P450 2D6 (Homo sapiens, UniProt P10635). < 4.52

Origin of values: ChEMBL document CHEMBL6134892
